The measured values listed here are drawn from the RNAGym collection of RNA variant scans (doi:10.1073/pnas.2313332121).

B1: TPR t1 (parent)
chain: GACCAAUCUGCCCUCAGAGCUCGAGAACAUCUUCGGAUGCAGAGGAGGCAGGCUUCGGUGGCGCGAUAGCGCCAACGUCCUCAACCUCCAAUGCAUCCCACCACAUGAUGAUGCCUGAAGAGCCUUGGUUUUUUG

variants of: B1; assay: polymerase ribozyme fitness, log enrichment relative to wild type (log ratio); higher = more active; in vitro selection for triplet polymerase activity
Mark T for reported polymerase ribozyme fitness (log ratio) of -3 or greater; mark F for anything smaller.

{"columns": ["Mutation descriptor", "Category label"],
 "data": [
  ["U14C A37U", "T"],
  ["G45A C72U A91G U129A", "F"],
  ["G36A G52A A66G", "T"],
  ["C8G A43U U54C C114A A118G", "F"],
  ["A27G G45A", "T"],
  ["A18U C56U C94U A111C C114U", "F"],
  ["G47A U92C", "T"],
  ["C62A G110C", "F"],
  ["G65C U87A", "F"],
  ["C8A G113C", "T"],
  ["G10U G60C G69U A108G", "F"]
]}
